Origin of measurements: patent US11365199B2

Molecular target: FSHR (Homo sapiens, UniProt P23945)
Construct: expressed in transfected cells; host or cells: CHO (Cho-FSHR-LUC-1-1-43)
Sequence (P23945 18-695): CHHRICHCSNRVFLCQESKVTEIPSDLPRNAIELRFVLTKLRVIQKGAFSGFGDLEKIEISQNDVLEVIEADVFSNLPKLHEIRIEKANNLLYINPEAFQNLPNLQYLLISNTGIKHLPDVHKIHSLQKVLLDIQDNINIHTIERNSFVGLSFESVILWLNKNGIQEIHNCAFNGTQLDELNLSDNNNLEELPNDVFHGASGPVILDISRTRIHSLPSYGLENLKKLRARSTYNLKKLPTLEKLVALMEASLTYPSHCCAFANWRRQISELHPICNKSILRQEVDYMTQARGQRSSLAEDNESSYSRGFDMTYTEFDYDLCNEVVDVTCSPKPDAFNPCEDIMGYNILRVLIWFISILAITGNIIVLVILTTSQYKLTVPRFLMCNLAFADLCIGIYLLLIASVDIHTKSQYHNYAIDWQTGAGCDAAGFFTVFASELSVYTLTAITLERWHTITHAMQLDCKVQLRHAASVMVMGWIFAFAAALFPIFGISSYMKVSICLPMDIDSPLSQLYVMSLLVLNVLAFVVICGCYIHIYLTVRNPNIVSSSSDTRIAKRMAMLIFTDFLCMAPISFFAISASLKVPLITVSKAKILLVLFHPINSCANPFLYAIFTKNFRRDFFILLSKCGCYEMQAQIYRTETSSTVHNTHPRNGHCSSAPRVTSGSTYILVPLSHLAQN
Assay: EC50 of cyclic AMP production in CHO FSHR cells + EC20 FSH (Assay A)
Type: cell-based
Conditions: CHO FSHR cells + EC20 FSH, cAMP HTRF; read-out: Assay A: EC50 of cyclic AMP production
Method: EC50 of Cyclic AMP Production in CHO FSHR Cells+EC20 FSH (Assay A) 2500 Cho-FSHR-LUC-1-1-43 cells were plated per well in 5 μl of phenol red free DMEM/F12+1% FBS. Cells were plated in 384 well, solid white low volume plates (Greiner 784075) by Multidrop. […] The plates were read on Envision using the cAMP HTRF—low volume 384 well protocol. The readout was the calculated fluorescence ratio (665 nm/620 nm). […]
For each of the molecules below, state its EC50.

Entry COc1cc2c(cc1-c1cn[nH]c1)-c1c(c(C(=O)NCCN3CCOC3=O)nn1-c1ccsc1)CO2 [Compound 62] has what EC50?
100 to 1000 nM

How about this molecule: COc1cc2c(cc1CC(C)C)-c1c(c(C(=O)NC3(C)COC3)nn1-c1ccsc1)CO2 [Compound 145]
100 to 1000 nM

How about this molecule: COc1cc2c(cc1C=C(C)C)-c1c(c(C(=O)N(C)C(C)(C)C)nn1-c1ccsc1)CO2 [Compound 6]
< 100 nM

How about this molecule: COc1cc2c(cc1OC(C)C)-c1c(c(C(=O)N(C)C(C)(C)C)nn1-c1ccsc1)CO2 [Compound 19]
< 100 nM

How about this molecule: COc1cc2c(cc1-c1nc[nH]n1)-c1c(c(C(=O)N3CCOCC3(C)C)nn1-c1ccsc1)CO2 [Compound 161]
< 100 nM

How about this molecule: [2H]C([2H])([2H])NC(=O)[C@H]1CCC[C@@H](N(C(=O)c2nn(-c3ccsc3)c3c2COc2cc(OC)c(C=C(C)C)cc2-3)C([2H])([2H])[2H])C1 [Compound 107]
> 5000 nM

How about this molecule: COc1cc2c(cc1C1=CCN(C)CC1)-c1c(c(C(=O)N(C)C(C)(C)C)nn1-c1ccsc1)CO2 [Compound 68]
< 100 nM

###

molecular target: FSHR (Homo sapiens, UniProt P23945); construct: expressed in transfected cells; host or cells: CHO (Cho-FSHR-LUC-1-1-43); assay: EC50 of cyclic AMP production in CHO FSHR cells + EC20 FSH (Assay A); type: cell-based; settings: CHO FSHR cells + EC20 FSH, cAMP HTRF; read-out: Assay A: EC50 of cyclic AMP production
For each of the molecules below, state its EC50.

Entry "COc1cc2c(cc1-c1ccn(C)c1)-c1c(c(C(=O)NC3(C)COC3)nn1-c1ccsc1)CO2" has what EC50?
100 to 1000 nM

How about this molecule: "[2H]C([2H])([2H])OCC(C)(C)N(C(=O)c1nn(-c2ccsc2)c2c1COc1cc(OC)c(CC(C)C)cc1-2)C([2H])([2H])[2H]"
< 100 nM

How about this molecule: COc1cc2c(cc1OC(C)C)-c1c(c(C(=O)N3CCCC(C(=O)N4CCC4)CC3)nn1-c1ccsc1)CO2 (stereo not shown)
1000 to 5000 nM

How about this molecule: "COc1cc2c(cc1-c1ccn(C)c1)-c1c(c(C(=O)O[C@H]3CC[C@H](N)C3)nn1-c1ccsc1)CO2"
< 100 nM

How about this molecule: "CCCn1cc(-c2cc3c(cc2OC)OCc2c(C(=O)N4CCOCC4(C)C)nn(-c4ccsc4)c2-3)cn1"
< 100 nM

How about this molecule: "COc1cc2c(cc1Br)-c1c(c(C(=O)N(C)C(C)(C)C)nn1-c1ccsc1)CO2"
100 to 1000 nM

How about this molecule: "COc1cc2c(cc1-c1ccn(C)n1)-c1c(c(C(=O)NC(C)(CO)CO)nn1-c1ccsc1)CO2"
100 to 1000 nM
